testedSystem: human glucagon-like peptide 1 receptor (GLP-1R) (human, UniProt P43220 24-463)
assayOverview: cell-based or functional assay
Answer each item with its documented GLP-1R EC50 (nM), cAMP AlphaScreen on HEK293 cells expressing the receptor.
One number for each entry, in nM.

The cases that follow already have their GLP-1R EC50 (nM), cAMP AlphaScreen on HEK293 cells expressing the receptor on record.
binder: H-HGEGSFSSDLSTILEGKAARDFIEWLIQTKITD-OH [Compound 13: Hy-HGEGSFSSDLSTILEGKAARDFIEWLIQTKITD-OH]
u: nM
quantitativeReadout: 18
--
binder: H-HGDGSFSSEMNTILDSQAARDFINWLIQTKITD-OH [Compound 4: Hy-HGDGSFSSEMNTILDSQAARDFINWLIQTKITD-OH]
u: nM
quantitativeReadout: 25
--
binder: H-HGEGTFTSDLSTILENKAARDFIEWLIQTKITD-OH [Compound 8: Hy-HGEGTFTSDLSTILENKAARDFIEWLIQTKITD-OH]
u: nM
quantitativeReadout: 16

Return reported GLP-1R EC50 (nM), cAMP AlphaScreen on HEK293 cells expressing the receptor values for all items listed beneath this line.
1. H-HGEGTFTSDLSKQMEGQAVRDFIEWLIQTKITD-OH [Compound 5: Hy-HGEGTFTSDLSKQMEGQAVRDFIEWLIQTKITD-OH]
2. H-HGEGSFSSDLSTILENKAARDFIEWLIQTKITD-OH [Compound 9: Hy-HGEGSFSSDLSTILENKAARDFIEWLIQTKITD-OH]
3. H-HGEGTFTSDLSKQMESKAARDFIEWLIQTKITD-OH [Compound 6: Hy-HGEGTFTSDLSKQMESKAARDFIEWLIQTKITD-OH]

Result:
[1, 9.1, 1.1]

Data origin, for the record: patent US20150125431A1
